Assay: Inhibition of Plasmodium berghei DHODH expressed in Escherichia coli DH5alpha using 2,6-dichoroindophenol substrate by spectrophotometric analysis
Field: IC50. Provide a value for each of the compounds that follow.
One number for each entry, in µM.

| SMILES REPR | IC50 / µM |
| --- | --- |
| Cc1cc(Nc2ccc3ccccc3c2)n2ccnc2n1 | 2.8 |
| Cc1nc(Nc2ccc3ccccc3c2)c2nc[nH]c2n1 | 11 |
| Cc1cc(Nc2ccc3ccccc3c2)n2nccc2n1 | 3.3 |
| Cc1cc(Nc2ccc3ccccc3c2)n2ncnc2c1 | 6.3 |

Read the next record carefully.
# compound Cc1cc(Nc2ccc(C(F)(F)F)cc2)n2ccnc2n1 ; its IC50 = 0.17
